# TARGET_OR_SYSTEM: p38 MAP Kinase a (Homo sapiens)
# Construct: purchased Upstate (Dundee UK)
# PROTOCOL_DESCRIPTION: p38 MAP Kinase activity, radiometric filter-binding assay (Upstate)
# Assay type: biochemical
# EXPERIMENTAL_CONDITIONS: IC50 range; read-out: Inhibitor activity versus p38 MAPKa
METRIC_NAME: IC50

COMPOUND_STRUCTURE_STRING	IC50
Nc1c(C(=O)c2ccc(F)cc2)ccc(=O)n1-c1c(F)cc(CCN[C@H](C(=O)OC2CCCC2)c2ccccc2)cc1F	0.1 to 1 µM
Nc1c(C(=O)c2ccc(F)cc2F)ccc(=O)n1-c1ccc(CCN[C@@H](Cc2ccccc2)C(=O)OC2CCCC2)cc1	0.1 to 1 µM
CC(C)(C)OC[C@H](NCCc1ccc(-n2c(N)c(C(=O)c3ccc(F)cc3F)ccc2=O)cc1)C(=O)O	< 0.1 µM
CC(C)C[C@H](NCCc1cc(F)c(-n2c(N)c(C(=O)c3ccc(F)cc3)ccc2=O)c(F)c1)C(=O)OC(C)(C)C	0.1 to 1 µM
CC(C)(C)OC(=O)[C@@H](NCCc1ccc(-n2c(N)c(C(=O)c3ccc(F)cc3F)ccc2=O)cc1)c1ccccc1	0.1 to 1 µM

Would you mind telling me what IC50 value was observed for CC(C)(C)OC[C@H](NCCc1ccc(-n2c(N)c(C(=O)c3ccc(F)cc3F)ccc2=O)cc1)C(=O)OC(C)(C)C ? 0.1 to 1 µM

What value of measured IC50 is listed for CC(C)[C@H](NCCc1ccc(-n2c(N)c(C(=O)c3ccc(F)cc3F)ccc2=O)cc1)C(=O)O ? < 0.1 µM

What IC50 value was documented for this molecule, CC(C)C[C@@H](NCCc1ccc(-n2c(N)c(C(=O)c3ccc(F)cc3F)ccc2=O)cc1)C(=O)O ? 0.1 to 1 µM

###

# TARGET_OR_SYSTEM: p38 MAP Kinase a (Homo sapiens, UniProt Q16539)
# Construct: purchased Upstate (Dundee UK)
# Sequence (Q16539 whole entry): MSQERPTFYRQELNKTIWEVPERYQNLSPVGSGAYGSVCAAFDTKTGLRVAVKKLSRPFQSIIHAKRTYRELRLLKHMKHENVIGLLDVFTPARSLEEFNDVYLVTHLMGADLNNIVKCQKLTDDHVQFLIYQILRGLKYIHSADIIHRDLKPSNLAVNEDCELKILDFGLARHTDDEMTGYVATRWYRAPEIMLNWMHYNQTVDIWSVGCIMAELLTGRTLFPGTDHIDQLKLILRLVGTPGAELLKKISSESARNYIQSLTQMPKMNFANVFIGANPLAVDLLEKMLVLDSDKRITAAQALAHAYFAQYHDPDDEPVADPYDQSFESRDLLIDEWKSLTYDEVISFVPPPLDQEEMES
# PROTOCOL_DESCRIPTION: p38 MAP Kinase activity, radiometric filter-binding assay (Upstate)
# Type: biochemical
# EXPERIMENTAL_CONDITIONS: compound as such (Example 33: Ester); read-out: Inhibition of P38α (IC50 nM)
METRIC_NAME: IC50 (nM)

P. CC(C)C[C@H](NCCc1cc(F)c(-n2c(N)c(C(=O)c3ccc(F)cc3F)ccc2=O)c(F)c1)C(=O)OC1CCCC1
Q. Nc1c(C(=O)c2ccc(F)cc2F)ccc(=O)n1-c1c(F)cccc1F [Compound I, reference compound]
Which has the smaller recorded IC50, P or Q ? Please respond with the label that marks your chosen entry. Q

###

# Tested on: phosphorylation of MAPKAP-2 in HUT 78 cells
# PROTOCOL_DESCRIPTION: Cellular assay for the phosphorylation of MAPKAP-2 by p38 in HUT 78 cells
# Format: cell-based
# EXPERIMENTAL_CONDITIONS: Homo sapiens, HuT78; non-macrophage cell line HUT 78; anisomycin 10 μM; read-out: Inhibition of phosphorylation of MAPKAP-2 in HUT 78 cells (IC50)
# Experimental: U937 or HUT78 cells were plated in RPMI 1640, and were incubated at 37° C., 5% CO2 for 18 hours. 10 mM stocks of compounds were diluted media/0.1% DMSO to give a log or semi-log dilution series. The wells for ‘no treatment’ and ‘anisomycin’ were treated with 0.1% DMSO only. The cells were incubated at 37° C., 5% CO2 for a further 4 hours. Anisomycin was added to all wells except ‘no treatment’ at a final concentration of 10 μM. The cells were incubated at 37° C., 5% CO2 for 30 minutes before harvest. […]
We begin with a simple list: items and their reported IC50.
Entry rule: numbers only, all in µM.

COMPOUND	TARGET_OR_SYSTEM	IC50 / µM
Nc1c(C(=O)c2ccc(F)cc2F)ccc(=O)n1-c1c(F)cccc1F [Compound I, reference compound]	phosphorylation of MAPKAP-2 in HUT 78 cells	0.01

Tell me the measured IC50 of CC(C)C[C@H](NCCc1cc(F)c(-n2c(N)c(C(=O)c3ccc(F)cc3F)ccc2=O)c(F)c1)C(=O)OC1CCCC1 [Example 33] , please. 0.073

###

Reported IC50 is given for each of the following molecules.
# TARGET_OR_SYSTEM: p38 MAP Kinase a (Homo sapiens, UniProt Q16539)
# Construct: purchased Upstate (Dundee UK)
# PROTOCOL_DESCRIPTION: p38 MAP Kinase activity, radiometric filter-binding assay (Upstate)
# Type: biochemical
# EXPERIMENTAL_CONDITIONS: IC50 range; read-out: Inhibitor activity versus p38 MAPKa

MOLECULE	TARGET_OR_SYSTEM	METRIC_NAME	RESULT
CC(C)C[C@H](NCCc1cc(F)c(-n2c(N)c(C(=O)c3ccc(F)cc3F)ccc2=O)c(F)c1)C(=O)OC(C)(C)C [Example 37]	p38 MAP Kinase a (Homo sapiens, UniProt Q16539)	IC50	100 to 1000 nM
Nc1c(C(=O)c2ccc(F)cc2F)ccc(=O)n1-c1c(F)cc(CCN[C@H](C(=O)OC2CCCC2)c2ccc(O)cc2)cc1F [Example 44]	p38 MAP Kinase a (Homo sapiens, UniProt Q16539)	IC50	< 100 nM
CC(C)C[C@H](NCCc1cc(F)c(-n2c(N)c(C(=O)c3ccc(F)cc3)ccc2=O)c(F)c1)C(=O)OC1CCCC1 [Example 24]	p38 MAP Kinase a (Homo sapiens, UniProt Q16539)	IC50	< 100 nM

Could you tell me which IC50 is on file for CC(C)(C)OC[C@H](NCCc1cc(F)c(-n2c(N)c(C(=O)c3ccc(F)cc3)ccc2=O)c(F)c1)C(=O)O [Example 65] ? < 100 nM

What value of measured IC50 is listed for CC(C)C[C@@H](NCCc1cc(F)c(-n2c(N)c(C(=O)c3ccc(F)cc3)ccc2=O)c(F)c1)C(=O)O [Example 64] ? < 100 nM

Any idea what IC50 was measured for Nc1c(C(=O)c2ccc(F)cc2F)ccc(=O)n1-c1c(F)cc(CCN[C@H](C(=O)OC2CCCC2)C2CCCCC2)cc1F [Example 36] ? 100 to 1000 nM

Consider the molecule CC(C)(C)[C@H](NCCc1ccc(-n2c(N)c(C(=O)c3ccc(F)cc3F)ccc2=O)cc1)C(=O)OC1CCCC1 [Example 7] and give its measured IC50. 100 to 1000 nM

###

# TARGET_OR_SYSTEM: p38 MAP Kinase a (Homo sapiens)
# Construct: purchased Upstate (Dundee UK)
# PROTOCOL_DESCRIPTION: p38 MAP Kinase activity, radiometric filter-binding assay (Upstate)
# Assay type: biochemical
# EXPERIMENTAL_CONDITIONS: IC50 range; read-out: Inhibitor activity versus p38 MAPKa
METRIC_NAME: IC50

Known results for molecules:
COMPOUND_STRUCTURE_STRING	IC50
CC(C)C[C@@H](NCCc1ccc(-n2c(N)c(C(=O)c3ccc(F)cc3F)ccc2=O)cc1)C(=O)OC(C)(C)C	100 to 1000 nM
CC(C)[C@H](NCCc1cc(F)c(-n2c(N)c(C(=O)c3ccc(F)cc3F)ccc2=O)c(F)c1)C(=O)OC1CCCC1	< 100 nM
Nc1c(C(=O)c2ccc(F)cc2F)ccc(=O)n1-c1ccc(CCN[C@@H](CO)C(=O)O)cc1	< 100 nM
CC(C)C[C@H](NCCc1ccc(-n2c(N)c(C(=O)c3ccc(F)cc3F)ccc2=O)s1)C(=O)O	100 to 1000 nM

Fill in the blank: the reported IC50 of COc1ccc([C@H](NCCc2cc(F)c(-n3c(N)c(C(=O)c4ccc(F)cc4F)ccc3=O)c(F)c2)C(=O)OC2CCCC2)cc1 is ____. < 100 nM

Quick one: IC50 for C[C@@H](O)[C@H](NCCc1ccc(-n2c(N)c(C(=O)c3ccc(F)cc3F)ccc2=O)cc1)C(=O)OC1CCCC1 ? < 100 nM

Returns the measured IC50 for the input molecule. Input: CC(C)(C)OC(=O)[C@@H](NCCc1cc(F)c(-n2c(N)c(C(=O)c3ccc(F)cc3)ccc2=O)c(F)c1)c1ccccc1 100 to 1000 nM

Give the measured IC50 of CC(C)C[C@H](NCCc1cc(F)c(-n2c(N)c(C(=O)c3ccc(F)cc3)ccc2=O)c(F)c1)C(=O)O . < 100 nM

Sample CC(C)(C)OC[C@H](NCCc1cc(F)c(-n2c(N)c(C(=O)c3ccc(F)cc3)ccc2=O)c(F)c1)C(=O)OC(C)(C)C — what was its IC50? 100 to 1000 nM

Value lookup for IC50; key = CC(C)C[C@H](NCCc1cc(F)c(-n2c(N)c(C(=O)c3ccc(F)cc3F)ccc2=O)c(F)c1)C(=O)OC1CCCC1 100 to 1000 nM

Can you share its IC50? I mean this molecule: CC(C)C[C@@H](NCCc1cc(F)c(-n2c(N)c(C(=O)c3ccc(F)cc3F)ccc2=O)c(F)c1)C(=O)OC1CCCC1 100 to 1000 nM

Quick one: IC50 of Nc1c(C(=O)c2ccc(F)cc2F)ccc(=O)n1-c1c(F)cc(CCN[C@@H](C(=O)OC2CCCC2)c2ccccc2)cc1F ? < 100 nM

Quick one: IC50 of CC(C)C[C@@H](NCCc1cc(F)c(-n2c(N)c(C(=O)c3ccc(F)cc3F)ccc2=O)c(F)c1)C(=O)O ? < 100 nM

Find the recorded IC50 belonging to CC(C)(C)[C@H](NCCc1ccc(-n2c(N)c(C(=O)c3ccc(F)cc3F)ccc2=O)cc1)C(=O)O and report it. 100 to 1000 nM

Attribution: patent US20100267774A1
